The reported measurements were obtained from the supplement of paper PMC8967900.

Would you kindly list selective drug sensitivity score for each of these compounds?
- System: PF-382;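 also: ALL cell lines in 384-well plates, five doses spanning 10,000-fold, each plate scaled between vehicle and 100 µmol/L benzalkonium chloride controls, sDSS an adapted area-under-curve metric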
- experiment: selective drug sensitivity score (sDSS, relative to normal bone marrow) (sDSS (score)); higher = more potent and effective on the cell line relative to normal bone marrow cells
- assay_context: 72 h

Check out these entries, answers already filled in.
compound="O=C(NCc1ccncc1)C12CC3CC(C1)CC(c1ccc(Cl)cc1)(C3)C2 (top concentration 50000 nM)" recorded_measurement=0.48
compound="C[C@@H]1COCCN1c1cc(C2([S@](C)(=N)=O)CC2)nc(-c2cc[nH]c3nccc2-3)n1 [AZD6738] (top concentration 25000 nM)" recorded_measurement=4.68

Value sought for every listed compound: selective drug sensitivity score.
1. CCCCOc1nc(N)c2c(n1)N(Cc1cccc(CN3CCCC3)c1)CC(=O)N2 [Vesatolimod] (top concentration 10000 nM)
2. NC1(C(=O)N[C@@H](CCO)c2ccc(Cl)cc2)CCN(c2ncnc3[nH]ccc23)CC1 [AZD-5363] (top concentration 10000 nM)
3. CO[C@@H]1[C@H](N(C)C(=O)c2ccccc2)C[C@H]2O[C@]1(C)n1c3ccccc3c3c4c(c5c6ccccc6n2c5c31)C(=O)NC4 [Midostaurin] (top concentration 10000 nM)
4. C=CC(=O)Nc1cc(Nc2nccc(-c3cn(C)c4ccccc34)n2)c(OC)cc1N(C)CCN(C)C [Osimertinib] (top concentration 2500 nM)

// result
1. -3.52
2. 4.42
3. 4.46
4. -2.12
